test: BHET released, HPLC; higher = more BHET released; extreme values may be limits of the assay
runParameters: PET substrate: cryPow; 70 °C; pH 7.5; 24 h
Parameter: BHET released. Scope: all listed entries.
measurementName: BHET released (mM)

1) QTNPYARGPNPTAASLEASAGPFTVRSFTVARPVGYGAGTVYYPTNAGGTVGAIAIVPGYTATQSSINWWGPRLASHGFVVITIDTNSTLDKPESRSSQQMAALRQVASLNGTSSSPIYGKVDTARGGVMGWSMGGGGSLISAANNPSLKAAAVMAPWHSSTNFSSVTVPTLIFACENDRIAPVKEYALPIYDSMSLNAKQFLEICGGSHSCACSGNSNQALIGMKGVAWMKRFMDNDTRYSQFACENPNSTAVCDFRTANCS [HotPETase] :: 0
2) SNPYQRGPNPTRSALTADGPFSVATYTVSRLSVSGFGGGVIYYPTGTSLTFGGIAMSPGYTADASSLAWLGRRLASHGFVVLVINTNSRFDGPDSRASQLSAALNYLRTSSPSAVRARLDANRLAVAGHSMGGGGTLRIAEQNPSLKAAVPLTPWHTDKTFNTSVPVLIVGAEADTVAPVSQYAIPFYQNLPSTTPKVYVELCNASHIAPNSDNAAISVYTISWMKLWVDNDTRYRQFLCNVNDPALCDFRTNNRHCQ [LCC-A2] :: 0
3) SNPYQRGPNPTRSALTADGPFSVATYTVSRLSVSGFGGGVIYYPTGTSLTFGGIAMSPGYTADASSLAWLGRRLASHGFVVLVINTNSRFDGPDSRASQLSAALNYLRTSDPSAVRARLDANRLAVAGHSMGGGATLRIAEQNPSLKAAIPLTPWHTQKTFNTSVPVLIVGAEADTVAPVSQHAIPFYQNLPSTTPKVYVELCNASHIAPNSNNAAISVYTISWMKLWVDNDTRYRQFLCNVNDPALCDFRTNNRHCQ [LCC-ICCG DAQI] :: 0

====

test: BHET released, HPLC; higher = more BHET released; extreme values may be limits of the assay
runParameters: PET substrate: cryPow; 60 °C; pH 9.5; 24 h
Parameter: BHET released. Scope: all listed entries.
measurementName: BHET released (mM)

1) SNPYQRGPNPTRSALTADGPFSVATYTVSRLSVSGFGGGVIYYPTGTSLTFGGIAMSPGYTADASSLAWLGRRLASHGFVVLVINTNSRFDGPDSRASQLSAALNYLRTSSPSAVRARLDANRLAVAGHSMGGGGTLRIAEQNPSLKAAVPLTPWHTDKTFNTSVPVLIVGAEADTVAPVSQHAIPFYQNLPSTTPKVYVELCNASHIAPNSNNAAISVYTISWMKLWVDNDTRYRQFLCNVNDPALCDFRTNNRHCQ [LCC-ICCG] :: 0
2) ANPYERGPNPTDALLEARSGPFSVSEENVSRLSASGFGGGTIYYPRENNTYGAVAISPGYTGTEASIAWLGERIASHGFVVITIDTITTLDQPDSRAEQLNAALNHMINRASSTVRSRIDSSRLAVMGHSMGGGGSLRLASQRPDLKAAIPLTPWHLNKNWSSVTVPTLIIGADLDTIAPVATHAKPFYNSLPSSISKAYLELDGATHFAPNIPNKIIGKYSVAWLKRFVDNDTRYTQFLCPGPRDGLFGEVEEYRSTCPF [TfCut2] :: 0

====

test: MHET released, HPLC; higher = more MHET released; extreme values may be limits of the assay
runParameters: PET substrate: cryPow; 60 °C; pH 4.5; 24 h
Parameter: MHET released. Scope: all listed entries.
measurementName: MHET released

1) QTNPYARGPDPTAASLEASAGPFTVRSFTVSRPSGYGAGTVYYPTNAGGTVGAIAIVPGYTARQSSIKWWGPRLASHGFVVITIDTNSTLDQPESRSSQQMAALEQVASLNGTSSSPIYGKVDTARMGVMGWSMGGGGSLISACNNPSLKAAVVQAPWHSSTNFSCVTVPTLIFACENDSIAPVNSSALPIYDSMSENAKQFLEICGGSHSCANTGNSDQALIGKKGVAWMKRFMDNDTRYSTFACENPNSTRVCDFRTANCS [Z1-PETase] :: 0 mM
2) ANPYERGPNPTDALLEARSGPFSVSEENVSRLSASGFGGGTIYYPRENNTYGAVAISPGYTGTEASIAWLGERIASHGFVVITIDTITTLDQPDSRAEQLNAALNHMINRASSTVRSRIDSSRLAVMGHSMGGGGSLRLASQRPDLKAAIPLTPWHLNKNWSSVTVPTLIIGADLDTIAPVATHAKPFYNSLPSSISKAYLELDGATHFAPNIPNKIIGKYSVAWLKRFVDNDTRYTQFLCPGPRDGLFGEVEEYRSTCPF [TfCut2] :: 0 mM
3) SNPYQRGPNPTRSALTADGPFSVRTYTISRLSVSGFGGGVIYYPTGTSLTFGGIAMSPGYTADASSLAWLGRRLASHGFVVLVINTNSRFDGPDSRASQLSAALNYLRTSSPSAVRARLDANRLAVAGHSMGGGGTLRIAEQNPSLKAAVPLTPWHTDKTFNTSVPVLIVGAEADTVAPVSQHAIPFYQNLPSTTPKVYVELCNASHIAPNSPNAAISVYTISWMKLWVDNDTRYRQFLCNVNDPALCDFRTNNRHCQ [LCC-ICCG RIP] :: 0.0685 mM
4) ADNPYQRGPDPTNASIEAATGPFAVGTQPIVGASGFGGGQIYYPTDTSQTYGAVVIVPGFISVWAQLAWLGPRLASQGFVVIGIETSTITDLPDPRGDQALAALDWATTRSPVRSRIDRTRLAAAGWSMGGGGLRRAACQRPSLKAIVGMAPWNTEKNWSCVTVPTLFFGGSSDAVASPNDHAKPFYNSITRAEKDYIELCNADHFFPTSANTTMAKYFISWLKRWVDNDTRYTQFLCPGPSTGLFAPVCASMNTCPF [CaPETaseM9] :: 0.0364 mM
5) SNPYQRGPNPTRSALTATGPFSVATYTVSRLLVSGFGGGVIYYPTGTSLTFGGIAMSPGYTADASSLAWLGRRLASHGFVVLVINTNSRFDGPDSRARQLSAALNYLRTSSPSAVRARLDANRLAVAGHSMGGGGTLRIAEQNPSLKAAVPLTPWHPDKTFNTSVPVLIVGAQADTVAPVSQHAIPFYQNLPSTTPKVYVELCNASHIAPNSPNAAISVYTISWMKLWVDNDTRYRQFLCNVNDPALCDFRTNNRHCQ [LCC-ICCG I6M] :: 0.0591 mM
6) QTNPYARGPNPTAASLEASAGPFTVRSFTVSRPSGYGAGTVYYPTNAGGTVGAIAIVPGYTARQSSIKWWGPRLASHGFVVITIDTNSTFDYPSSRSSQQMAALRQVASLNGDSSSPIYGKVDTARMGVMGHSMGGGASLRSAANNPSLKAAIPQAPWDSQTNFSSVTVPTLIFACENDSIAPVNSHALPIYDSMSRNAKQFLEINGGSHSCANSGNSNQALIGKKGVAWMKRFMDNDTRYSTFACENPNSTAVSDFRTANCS [DuraPETase] :: 0 mM

====

Parameter: BHET released. Scope: all listed entries.
test: BHET released, HPLC; higher = more BHET released; extreme values may be limits of the assay
runParameters: PET substrate: aFilm; 70 °C; pH 8.5; 24 h
measurementName: BHET released (mM)

1. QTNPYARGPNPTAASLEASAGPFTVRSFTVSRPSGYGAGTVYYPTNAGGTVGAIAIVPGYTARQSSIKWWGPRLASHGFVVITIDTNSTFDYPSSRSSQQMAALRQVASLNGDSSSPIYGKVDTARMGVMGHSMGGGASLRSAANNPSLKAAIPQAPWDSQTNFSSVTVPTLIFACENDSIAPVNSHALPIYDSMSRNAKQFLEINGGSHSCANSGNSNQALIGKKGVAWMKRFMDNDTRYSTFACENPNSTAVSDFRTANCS [DuraPETase] :: 0
2. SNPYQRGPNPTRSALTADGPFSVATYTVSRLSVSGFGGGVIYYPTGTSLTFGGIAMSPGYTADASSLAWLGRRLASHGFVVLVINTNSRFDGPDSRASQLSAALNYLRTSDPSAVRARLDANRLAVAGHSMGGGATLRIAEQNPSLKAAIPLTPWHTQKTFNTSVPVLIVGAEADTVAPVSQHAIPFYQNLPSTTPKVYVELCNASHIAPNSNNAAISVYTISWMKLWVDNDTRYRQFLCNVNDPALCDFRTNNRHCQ [LCC-ICCG DAQI] :: 0
3. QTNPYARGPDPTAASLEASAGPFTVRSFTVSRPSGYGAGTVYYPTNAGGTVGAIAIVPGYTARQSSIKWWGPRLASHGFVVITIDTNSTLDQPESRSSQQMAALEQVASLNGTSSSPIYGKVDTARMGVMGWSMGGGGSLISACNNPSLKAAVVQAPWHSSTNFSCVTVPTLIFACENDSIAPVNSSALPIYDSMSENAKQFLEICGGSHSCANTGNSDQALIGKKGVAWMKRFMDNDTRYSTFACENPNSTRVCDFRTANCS [Z1-PETase] :: 0
